Hello, the source for this data is the supplement of paper PMC10065799, in case you need it.

System: c-Src
protocolDescription: phosphorylation enrichment, bacterial display (enrichment ratio); higher = better substrate or ligand; peptides without Tyr show the background
Here, each record is paired with measured phosphorylation enrichment data.
Lab note: jot down the number only; don't add units.

sequence: DQGEQYKKELE [LMNA_Y259_V256G]
phosphorylation enrichment: 0.522

Value of phosphorylation enrichment reported for the sequence QEGPEYWDQET [HLA-A_Y83] is 0.825

Value of phosphorylation enrichment reported for the sequence FFCRWYRNQKS [EREG_Y144_R147Q_YF] is 0.57

Value of phosphorylation enrichment reported for the sequence PSQRPYVYYYS [PTEN_Y174_R173P] is 2.78

Value of phosphorylation enrichment reported for the sequence LFEDRYLLGPS [ASS1_Y87_T91P_YF] is 0.689

Value of phosphorylation enrichment reported for the sequence KRIKSYNQEND [RPGRIP1L_Y448_L447S] is 0.409

Value of phosphorylation enrichment reported for the sequence QNTGDDFDLFG [PTPN11_Y62_Y62D_YF] is 0.689

Value of phosphorylation enrichment reported for the sequence PFRFIYMAVQH [PTPN11_Y515_Q510P_YF] is 1.26

Value of phosphorylation enrichment reported for the sequence SFPPTYRYERG [INPPL1_Y661] is 0.427

Value of phosphorylation enrichment reported for the sequence VGEGPYLLSDL [ABCC12_Y7_I9L] is 0.71

Value of phosphorylation enrichment reported for the sequence RRIHSYRGQLW [VHL_Y112_H115Q] is 0.776

Value of phosphorylation enrichment reported for the sequence FRPPFYHRNCM [HGD_Y334_YF] is 0.402

Value of phosphorylation enrichment reported for the sequence LAAAKYKLNVD [SMARCA2_Y1190] is 0.489

Value of phosphorylation enrichment reported for the sequence GRPLFYWLTGC [LYZL6_Y140] is 0.33

====

Here, each record is paired with measured phosphorylation enrichment data.
targetUnderTest: FGFR3 (UniProt P22607)
Sequence (P22607 whole entry, looked up): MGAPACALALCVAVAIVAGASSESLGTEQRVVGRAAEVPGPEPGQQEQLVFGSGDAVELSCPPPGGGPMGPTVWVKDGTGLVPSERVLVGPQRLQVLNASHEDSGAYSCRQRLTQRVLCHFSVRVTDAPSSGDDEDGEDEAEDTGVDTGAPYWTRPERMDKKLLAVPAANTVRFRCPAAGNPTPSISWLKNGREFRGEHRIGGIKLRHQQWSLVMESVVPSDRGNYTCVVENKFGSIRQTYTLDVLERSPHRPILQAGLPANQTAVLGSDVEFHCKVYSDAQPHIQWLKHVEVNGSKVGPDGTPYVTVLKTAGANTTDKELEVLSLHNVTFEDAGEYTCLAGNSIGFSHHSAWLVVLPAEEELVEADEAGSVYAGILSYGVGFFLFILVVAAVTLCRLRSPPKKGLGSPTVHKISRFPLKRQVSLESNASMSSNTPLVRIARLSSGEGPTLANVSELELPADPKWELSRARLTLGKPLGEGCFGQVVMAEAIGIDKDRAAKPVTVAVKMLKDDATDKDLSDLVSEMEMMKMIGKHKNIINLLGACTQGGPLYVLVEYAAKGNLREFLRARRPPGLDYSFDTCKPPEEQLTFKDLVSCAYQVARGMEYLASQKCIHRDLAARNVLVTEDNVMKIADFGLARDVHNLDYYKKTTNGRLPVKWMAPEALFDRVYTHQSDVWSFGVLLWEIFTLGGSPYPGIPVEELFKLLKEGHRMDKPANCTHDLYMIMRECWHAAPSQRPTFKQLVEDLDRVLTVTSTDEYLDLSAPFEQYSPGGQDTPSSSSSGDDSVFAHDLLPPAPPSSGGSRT
protocolDescription: phosphorylation enrichment, bacterial display (enrichment ratio); higher = better substrate or ligand; peptides without Tyr show the background

Value of phosphorylation enrichment reported for the sequence DTDSSYCIPIA [GAB1_Y373_T377I] is 0.706

Value of phosphorylation enrichment reported for the sequence FDGGCYEQLFV [MC4R_Y41_S36Y_YF] is 1.33

Value of phosphorylation enrichment reported for the sequence GASRRYGSGVS [NEU1_Y242_W240R] is 0.439

Value of phosphorylation enrichment reported for the sequence VNFDYYTVNLG [GFPT1_Y367_D366Y] is 14.5

Value of phosphorylation enrichment reported for the sequence EFGSGYPNDPK [RNASEH2A_Y210_D205E_YF] is 0.594

Value of phosphorylation enrichment reported for the sequence GVRFTYTIDGS [DCX_Y105_I104T_YF] is 0.729

Value of phosphorylation enrichment reported for the sequence LTMAPYSSVSV [FAM81A_Y24_L29V] is 0.899

====

targetUnderTest: c-Src SH2;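 further: peptide library displayed on the E. coli surface as eCPX fusions, selected cells deep-sequenced, score is each peptide's frequency after selection divided by its frequency in the input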
protocolDescription: SH2 binding enrichment of the phosphorylated peptide, bacterial display (enrichment ratio); higher = better substrate or ligand; peptides without Tyr show the background
Here, each record is paired with measured SH2 binding enrichment data.
Lab note: jot down the number only; don't add units.

sequence: DTDSSYCIPIA [GAB1_Y373_T377I]
SH2 binding enrichment: 0.551
//
sequence: SVVVSYEPPEV [TP53_Y220_P219S]
SH2 binding enrichment: 0.707
//
sequence: GFEEAYSVFKK [PAFAH1B1_Y28_YF]
SH2 binding enrichment: 0.605
//
sequence: EDSEYYKAFEE [CASQ2_Y179]
SH2 binding enrichment: 0.614
//
sequence: RLPNGYGLAFR [DLK1_Y262_S260N_YF]
SH2 binding enrichment: 0.699
//
sequence: DEGVNYFMSKG [FBXO8_Y156]
SH2 binding enrichment: 0.442

Value of SH2 binding enrichment reported for the sequence ACEVLYNIVFM [NCF2_Y125_A128V] is 0.403

====

Tested on: c-Src
protocolDescription: phosphorylation enrichment, bacterial display (enrichment ratio); higher = better substrate or ligand; peptides without Tyr show the background
# if value of phosphorylation enrichment reaches 0.6, tag T; if it stays below, tag F

sequence: TTPAVYARVTK [CTRB2_Y246_A250T]
targetUnderTest: c-Src
assignedLabel: T
//
sequence: PVQAPYQKVVA [HBB_Y131_A130P]
targetUnderTest: c-Src
assignedLabel: F
//
sequence: YQRITYHNWRH [PDE6B_Y556_R552Q]
targetUnderTest: c-Src
assignedLabel: F

phosphorylation enrichment >= 0.6 for PSQRRNVYYYS [PTEN_Y174_Y174N] ? T

phosphorylation enrichment >= 0.6 for CPYNLYAEQFS [HGD_Y40_L44F] ? T

====

Here, each record is paired with measured phosphorylation enrichment data.
targetUnderTest: FGFR1 (UniProt P11362)
Sequence (P11362 whole entry, looked up): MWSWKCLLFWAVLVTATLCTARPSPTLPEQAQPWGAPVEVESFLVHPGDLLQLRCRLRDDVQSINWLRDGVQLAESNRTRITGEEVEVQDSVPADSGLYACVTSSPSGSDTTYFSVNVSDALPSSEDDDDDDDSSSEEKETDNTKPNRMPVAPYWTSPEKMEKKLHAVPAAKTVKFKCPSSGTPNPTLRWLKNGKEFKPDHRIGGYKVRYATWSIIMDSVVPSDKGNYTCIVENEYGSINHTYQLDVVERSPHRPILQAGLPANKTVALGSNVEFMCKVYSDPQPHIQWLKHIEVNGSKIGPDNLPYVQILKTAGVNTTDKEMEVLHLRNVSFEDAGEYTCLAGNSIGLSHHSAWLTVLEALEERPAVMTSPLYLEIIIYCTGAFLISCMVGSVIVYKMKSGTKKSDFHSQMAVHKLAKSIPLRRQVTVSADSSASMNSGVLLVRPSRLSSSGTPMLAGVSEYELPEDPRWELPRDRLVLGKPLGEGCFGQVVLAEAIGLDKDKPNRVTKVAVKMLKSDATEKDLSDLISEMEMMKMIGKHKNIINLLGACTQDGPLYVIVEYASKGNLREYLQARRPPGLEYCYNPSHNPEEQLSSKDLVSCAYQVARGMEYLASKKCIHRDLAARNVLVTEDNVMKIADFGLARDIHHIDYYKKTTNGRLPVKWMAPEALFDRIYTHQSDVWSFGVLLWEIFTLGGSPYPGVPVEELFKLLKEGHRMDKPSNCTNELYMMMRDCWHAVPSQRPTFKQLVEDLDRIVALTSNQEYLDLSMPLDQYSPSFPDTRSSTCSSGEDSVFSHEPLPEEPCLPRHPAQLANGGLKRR
protocolDescription: phosphorylation enrichment, bacterial display (enrichment ratio); higher = better substrate or ligand; peptides without Tyr show the background
Lab note: jot down the number only; don't add units.

Illustrative cases are given below, each with its answer.
sequence: FGPPQYNIQFS [ERBB2IP_Y977_YF]
parameterMeasured: phosphorylation enrichment
observedMeasurement: 0.447
--
sequence: LSCLAYSGKDA [FXN_Y205_S202C]
parameterMeasured: phosphorylation enrichment
observedMeasurement: 0.495
--
sequence: DTMQTYNGNDE [TSPAN7_Y131_A127T]
parameterMeasured: phosphorylation enrichment
observedMeasurement: 0.695
--
sequence: PSPTKYSLSPS [RANBP2_Y785_R784K]
parameterMeasured: phosphorylation enrichment
observedMeasurement: 0.515

Value of phosphorylation enrichment reported for the sequence ISKQEYDEAGP [ACTC1_Y364] is 0.522

Value of phosphorylation enrichment reported for the sequence RLPNGYGLAFR [DLK1_Y262_S260N_YF] is 0.684

Value of phosphorylation enrichment reported for the sequence VLTSKYRGGGG [HBA1_Y141] is 0.332

Value of phosphorylation enrichment reported for the sequence VVHGSYDEIEG [SEC24A_Y263_S261G] is 0.395

Value of phosphorylation enrichment reported for the sequence PVKSEYPSIKL [NPC2_Y119] is 0.579

Value of phosphorylation enrichment reported for the sequence LKALHYMVQTS [SACS_Y3367] is 0.39

Value of phosphorylation enrichment reported for the sequence INSLKYAYNIS [EIF2B5_Y583] is 0.425

Value of phosphorylation enrichment reported for the sequence PLYSKYWPNHI [GREB1L_Y1560_R1558S] is 5.11

Value of phosphorylation enrichment reported for the sequence NFRRGYHLQVL [CD200R1L_Y138_H135R] is 0.462

Value of phosphorylation enrichment reported for the sequence DKEKWYPLGTS [PIK3C2G_Y1438_N1442T] is 0.409

Value of phosphorylation enrichment reported for the sequence GEDPIYVTLEG [RTKtide_2018] is 4.71

Value of phosphorylation enrichment reported for the sequence LKGQVYILGLE [ASS1_Y359_R363L] is 0.467

Value of phosphorylation enrichment reported for the sequence DKTGEYPVPLI [ACADM_Y73] is 0.468

Value of phosphorylation enrichment reported for the sequence DFLSSYSAVKQ [OAT_Y85_N89K] is 0.491

====

targetUnderTest: EPHB2 (UniProt P29323)
Sequence (P29323 whole entry, looked up): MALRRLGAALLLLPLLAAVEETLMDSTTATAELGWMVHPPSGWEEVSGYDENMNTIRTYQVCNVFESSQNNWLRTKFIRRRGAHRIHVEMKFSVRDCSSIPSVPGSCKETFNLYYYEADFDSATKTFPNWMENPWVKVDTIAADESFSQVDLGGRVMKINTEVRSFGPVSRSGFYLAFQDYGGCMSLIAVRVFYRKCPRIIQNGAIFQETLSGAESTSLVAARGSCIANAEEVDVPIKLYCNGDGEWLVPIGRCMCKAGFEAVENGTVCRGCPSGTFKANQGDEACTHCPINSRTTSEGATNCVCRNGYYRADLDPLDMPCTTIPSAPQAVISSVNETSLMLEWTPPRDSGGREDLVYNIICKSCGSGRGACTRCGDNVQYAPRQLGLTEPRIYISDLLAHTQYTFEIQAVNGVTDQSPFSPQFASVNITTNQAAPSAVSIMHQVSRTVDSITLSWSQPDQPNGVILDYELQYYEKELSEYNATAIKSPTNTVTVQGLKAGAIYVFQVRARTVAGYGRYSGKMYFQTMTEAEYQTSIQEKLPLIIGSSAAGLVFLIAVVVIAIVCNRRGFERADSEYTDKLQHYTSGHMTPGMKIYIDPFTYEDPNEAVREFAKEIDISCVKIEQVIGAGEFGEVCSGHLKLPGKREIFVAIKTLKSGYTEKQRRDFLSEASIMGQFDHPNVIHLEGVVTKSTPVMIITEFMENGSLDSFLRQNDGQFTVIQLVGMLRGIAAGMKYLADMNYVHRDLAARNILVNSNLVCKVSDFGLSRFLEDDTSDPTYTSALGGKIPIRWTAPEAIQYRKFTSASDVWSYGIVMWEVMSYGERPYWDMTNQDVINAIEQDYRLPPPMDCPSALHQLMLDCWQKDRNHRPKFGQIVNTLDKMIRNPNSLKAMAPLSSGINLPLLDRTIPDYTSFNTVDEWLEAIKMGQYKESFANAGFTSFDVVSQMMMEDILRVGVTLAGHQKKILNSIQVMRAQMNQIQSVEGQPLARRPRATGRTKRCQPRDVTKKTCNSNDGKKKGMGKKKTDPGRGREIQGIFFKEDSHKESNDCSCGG
protocolDescription: phosphorylation enrichment, bacterial display (enrichment ratio); higher = better substrate or ligand; peptides without Tyr show the background
Here, each record is paired with measured phosphorylation enrichment data.
Lab note: jot down the number only; don't add units.

Illustrative cases are given below, each with its answer.
sequence: LSCLAYSGKDA [FXN_Y205_S202C]
phosphorylation enrichment: 0.643

sequence: MCDKEYYSVHN [MET_Y1234_Y1230C]
phosphorylation enrichment: 0.865

sequence: KYLENYLNRLL [PLD2_Y169]
phosphorylation enrichment: 0.483

sequence: QNTGDDFDLFG [PTPN11_Y62_Y62D_YF]
phosphorylation enrichment: 1.02

sequence: GASRRYGSGVS [NEU1_Y242_W240R]
phosphorylation enrichment: 0.48

Value of phosphorylation enrichment reported for the sequence KFMVGYEMLAK [GALT_Y339_Q344K] is 0.604

Value of phosphorylation enrichment reported for the sequence DKITQYVEEVK [STX2_Y49] is 0.581

Value of phosphorylation enrichment reported for the sequence VTQEPYELFCE [CBL_Y368_Q367P_YF] is 0.687

Value of phosphorylation enrichment reported for the sequence QFQEKYKQVEQ [HCN4_Y531_YF] is 0.95

Value of phosphorylation enrichment reported for the sequence LEQDEYALHSH [HADHB_Y244_R247H] is 0.669

Value of phosphorylation enrichment reported for the sequence GRLVEYDIDEV [SMS_Y134] is 1.05

Value of phosphorylation enrichment reported for the sequence ARSHIYTFSSC [MEFV_Y741_A744S] is 0.665

Value of phosphorylation enrichment reported for the sequence TFMKQYPKVFL [CNBD1_Y70] is 0.541

Value of phosphorylation enrichment reported for the sequence EWKNNYPRLRE [OPA1_Y582] is 0.442

Value of phosphorylation enrichment reported for the sequence DLAGRYYALRS [CKB_Y173_K177R] is 0.439
